The values you see were collected from the NIST ThermoML archive (doi:10.1016/j.fluid.2016.05.030).

details: 323.15 K; 101.33 kPa; Liquid; Concentric cylinders viscometry
Give true (1) when the value for viscosity is at least 40 mPa·s. Give false (0) when it is less.

Solved entries:
{"Compound": "CCc1cccc[n+]1CC.O=S(=O)([N-]S(=O)(=O)C(F)(F)F)C(F)(F)F [1,2-diethylpyridin-1-ium bis((trifluoromethyl)sulfonyl)imide]", "Group Label": "false (0)"}
{"Compound": "CCCc1cccc[n+]1CC.O=S(=O)([N-]S(=O)(=O)C(F)(F)F)C(F)(F)F", "Group Label": "false (0)"}
{"Compound": "CCCCCCCc1cccc[n+]1CC.O=S(=O)([N-]S(=O)(=O)C(F)(F)F)C(F)(F)F", "Group Label": "true (1)"}
{"Compound": "CCCCCCCCc1cccc[n+]1CC.O=S(=O)([N-]S(=O)(=O)C(F)(F)F)C(F)(F)F", "Group Label": "true (1)"}

Ask: Does the compound CCCCc1cccc[n+]1CC.O=S(=O)([N-]S(=O)(=O)C(F)(F)F)C(F)(F)F have recorded viscosity that is 40 mPa·s or more?
Reply: false (0)

Ask: Does the compound CCCCCc1cccc[n+]1CC.O=S(=O)([N-]S(=O)(=O)C(F)(F)F)C(F)(F)F have recorded viscosity that is 40 mPa·s or more?
Reply: false (0)

Ask: Does the compound CCCCCCc1cccc[n+]1CC.O=S(=O)([N-]S(=O)(=O)C(F)(F)F)C(F)(F)F have recorded viscosity that is 40 mPa·s or more?
Reply: false (0)

###

assay: molar heat capacity at constant pressure; details: 298.15 K; 101.33 kPa; Liquid; Drop calorimetry
Classification by molar heat capacity at constant pressure follows these ranges: group 1 (below 600 J/K/mol), group 2 (600 J/K/mol to below 700 J/K/mol), group 3 (700 J/K/mol or more)

Solved entries:
{"Compound": "CCCCCc1cccc[n+]1CC.O=S(=O)([N-]S(=O)(=O)C(F)(F)F)C(F)(F)F", "Group Label": "group 2"}
{"Compound": "CCCCc1cccc[n+]1CC.O=S(=O)([N-]S(=O)(=O)C(F)(F)F)C(F)(F)F", "Group Label": "group 2"}

Ask: Which class holds CCCCCCCCc1cccc[n+]1CC.O=S(=O)([N-]S(=O)(=O)C(F)(F)F)C(F)(F)F ?
Reply: group 3

Ask: Which class holds CCCCCCCCCCc1cccc[n+]1CC.O=S(=O)([N-]S(=O)(=O)C(F)(F)F)C(F)(F)F ?
Reply: group 3

Ask: Which class holds CCCCCCCCCc1cccc[n+]1CC.O=S(=O)([N-]S(=O)(=O)C(F)(F)F)C(F)(F)F ?
Reply: group 3

Ask: Which class holds CCc1cccc[n+]1CC.O=S(=O)([N-]S(=O)(=O)C(F)(F)F)C(F)(F)F [1,2-diethylpyridin-1-ium bis((trifluoromethyl)sulfonyl)imide] ?
Reply: group 1

###

conditions: 333.15 K; 101.33 kPa; Liquid; Concentric cylinders viscometry
Consider the following molecules; for each one, report its viscosity.
One number for each entry, in mPa·s.

Look over these answered cases.
{"Smi": "CCCCCc1cccc[n+]1CC.O=S(=O)([N-]S(=O)(=O)C(F)(F)F)C(F)(F)F", "viscosity [mPa·s]": 25.11}
{"Smi": "CCCCc1cccc[n+]1CC.O=S(=O)([N-]S(=O)(=O)C(F)(F)F)C(F)(F)F", "viscosity [mPa·s]": 25.14}

Now for another entry.
Ask: Sample CCCCCCCc1cccc[n+]1CC.O=S(=O)([N-]S(=O)(=O)C(F)(F)F)C(F)(F)F — what was its viscosity?
Reply: 29.21

###

settings: 298.15 K; 101.33 kPa; Liquid; Vibrating tube method
Consider the following compounds; for each one, report its mass density.
Numbers only, in kg/m3.

State the recorded mass density for every item in the following list.
1. CCCCCCCCc1cccc[n+]1CC.O=S(=O)([N-]S(=O)(=O)C(F)(F)F)C(F)(F)F
2. CCCCCCCc1cccc[n+]1CC.O=S(=O)([N-]S(=O)(=O)C(F)(F)F)C(F)(F)F
3. CCCCc1cccc[n+]1CC.O=S(=O)([N-]S(=O)(=O)C(F)(F)F)C(F)(F)F
4. CCCc1cccc[n+]1CC.O=S(=O)([N-]S(=O)(=O)C(F)(F)F)C(F)(F)F
5. CCCCCc1cccc[n+]1CC.O=S(=O)([N-]S(=O)(=O)C(F)(F)F)C(F)(F)F

Reply:
[1297.4, 1320.8, 1409.1, 1447.2, 1371.1]

State the recorded mass density for every item in the following list.
1. CCc1cccc[n+]1CC.O=S(=O)([N-]S(=O)(=O)C(F)(F)F)C(F)(F)F [1,2-diethylpyridin-1-ium bis((trifluoromethyl)sulfonyl)imide]
2. CCCCCCc1cccc[n+]1CC.O=S(=O)([N-]S(=O)(=O)C(F)(F)F)C(F)(F)F

Reply:
[1470.6, 1344.3]

###

conditions: 298.15 K; 101.33 kPa; Liquid; Concentric cylinders viscometry
Consider the following compounds; for each one, report its viscosity.
Give bare numbers, in mPa·s.

Look over these answered cases.
{"Compound": "CCc1cccc[n+]1CC.O=S(=O)([N-]S(=O)(=O)C(F)(F)F)C(F)(F)F [1,2-diethylpyridin-1-ium bis((trifluoromethyl)sulfonyl)imide]", "Units Text": "mPa·s", "viscosity": 68.77}
{"Compound": "CCCCCCCc1cccc[n+]1CC.O=S(=O)([N-]S(=O)(=O)C(F)(F)F)C(F)(F)F", "Units Text": "mPa·s", "viscosity": 134.1}
{"Compound": "CCCCCCc1cccc[n+]1CC.O=S(=O)([N-]S(=O)(=O)C(F)(F)F)C(F)(F)F", "Units Text": "mPa·s", "viscosity": 119.41}
{"Compound": "CCCCc1cccc[n+]1CC.O=S(=O)([N-]S(=O)(=O)C(F)(F)F)C(F)(F)F", "Units Text": "mPa·s", "viscosity": 109.82}
{"Compound": "CCCCCc1cccc[n+]1CC.O=S(=O)([N-]S(=O)(=O)C(F)(F)F)C(F)(F)F", "Units Text": "mPa·s", "viscosity": 108.78}

State the recorded viscosity for every item in the following list.
1. CCCCCCCCc1cccc[n+]1CC.O=S(=O)([N-]S(=O)(=O)C(F)(F)F)C(F)(F)F
2. CCCc1cccc[n+]1CC.O=S(=O)([N-]S(=O)(=O)C(F)(F)F)C(F)(F)F

Reply:
1: 159.29; 2: 105.02

###

Consider the following molecules; for each one, report its mass density.
conditions: 308.15 K; 101.33 kPa; Liquid; Vibrating tube method
One number for each entry, in kg/m3.

{"Molecule": "CCCCCCCc1cccc[n+]1CC.O=S(=O)([N-]S(=O)(=O)C(F)(F)F)C(F)(F)F", "mass density [kg/m3]": 1312.2}
{"Molecule": "CCCCCCc1cccc[n+]1CC.O=S(=O)([N-]S(=O)(=O)C(F)(F)F)C(F)(F)F", "mass density [kg/m3]": 1335.5}
{"Molecule": "CCCCc1cccc[n+]1CC.O=S(=O)([N-]S(=O)(=O)C(F)(F)F)C(F)(F)F", "mass density [kg/m3]": 1400}
{"Molecule": "CCCCCc1cccc[n+]1CC.O=S(=O)([N-]S(=O)(=O)C(F)(F)F)C(F)(F)F", "mass density [kg/m3]": 1362.2}
{"Molecule": "CCCCCCCCc1cccc[n+]1CC.O=S(=O)([N-]S(=O)(=O)C(F)(F)F)C(F)(F)F", "mass density [kg/m3]": 1289}
{"Molecule": "CCc1cccc[n+]1CC.O=S(=O)([N-]S(=O)(=O)C(F)(F)F)C(F)(F)F [1,2-diethylpyridin-1-ium bis((trifluoromethyl)sulfonyl)imide]", "mass density [kg/m3]": 1461.1}

Ask: Sample CCCc1cccc[n+]1CC.O=S(=O)([N-]S(=O)(=O)C(F)(F)F)C(F)(F)F — what was its mass density?
Reply: 1437.8

###

details: 363.15 K; 101.33 kPa; Liquid; Concentric cylinders viscometry
Reported Metric: viscosity (mPa·s)
One number for each entry, in mPa·s.

{"Compound": "CCCCCc1cccc[n+]1CC.O=S(=O)([N-]S(=O)(=O)C(F)(F)F)C(F)(F)F", "viscosity [mPa·s]": 10.97}
{"Compound": "CCCCCCc1cccc[n+]1CC.O=S(=O)([N-]S(=O)(=O)C(F)(F)F)C(F)(F)F", "viscosity [mPa·s]": 11.54}
{"Compound": "CCCCCCCc1cccc[n+]1CC.O=S(=O)([N-]S(=O)(=O)C(F)(F)F)C(F)(F)F", "viscosity [mPa·s]": 12.34}
{"Compound": "CCCc1cccc[n+]1CC.O=S(=O)([N-]S(=O)(=O)C(F)(F)F)C(F)(F)F", "viscosity [mPa·s]": 10.95}
{"Compound": "CCc1cccc[n+]1CC.O=S(=O)([N-]S(=O)(=O)C(F)(F)F)C(F)(F)F [1,2-diethylpyridin-1-ium bis((trifluoromethyl)sulfonyl)imide]", "viscosity [mPa·s]": 9.483}
{"Compound": "CCCCCCCCc1cccc[n+]1CC.O=S(=O)([N-]S(=O)(=O)C(F)(F)F)C(F)(F)F", "viscosity [mPa·s]": 13.58}

Now for another entry.
Ask: Sample CCCCc1cccc[n+]1CC.O=S(=O)([N-]S(=O)(=O)C(F)(F)F)C(F)(F)F — what was its viscosity?
Reply: 11
